# TGI annotations
Test system: A498 renal
Experiment: NCI tumour cell line growth inhibition, 48 h
measure: TGI

compound="Cc1ccccc1NC(=O)C1C(=O)N(c2ccccc2C)C(=O)/C1=N\\NC(N)=O (stereo not given)" subjectoftest="A498 renal" measure=TGI readoutvalue="> 100 µM"
compound=O=S1(=O)C(=C(c2ccccc2)c2ccccc2)S(=O)(=O)c2ccccc21 subjectoftest="A498 renal" measure=TGI readoutvalue="> 100 µM"
compound=CC(C)=CCC[C@@H](C)C1=C(N)C(O)=C(C)C(=O)C1=O subjectoftest="A498 renal" measure=TGI readoutvalue="> 75 µM"
compound=CC(C)(C)c1ccc(OCCOCCOc2ccc(C(C)(C)C)cc2S(N)(=O)=O)c(S(N)(=O)=O)c1 subjectoftest="A498 renal" measure=TGI readoutvalue="> 100 µM"
compound=Cc1ccccc1NC(=O)CC(=O)NNCC(=O)Nc1nnc(-c2ccccc2)s1 subjectoftest="A498 renal" measure=TGI readoutvalue="> 100 µM"
compound="O=C(CC1(O)C(=O)Nc2c(Cl)cc(Cl)cc21)c1cccc([N+](=O)[O-])c1 (stereo not given)" subjectoftest="A498 renal" measure=TGI readoutvalue="66.8 µM"
compound=CN(CC(=O)Nc1ccccc1C(=O)O)c1ccccc1 subjectoftest="A498 renal" measure=TGI readoutvalue="> 100 µM"
compound="CS(=O)(=O)CCC1CCC(=O)O1 (stereo not given)" subjectoftest="A498 renal" measure=TGI readoutvalue="> 100 µM"
compound=O=c1[nH]c2ccccc2c2oc3ccccc3c12 subjectoftest="A498 renal" measure=TGI readoutvalue="> 100 µM"
compound=COc1cc2c(cc1OCCCOc1cc3c(cc1OC)C(=O)N1CCC[C@H]1C(=O)N3)N=C[C@@H]1CCCN1C2=O subjectoftest="A498 renal" measure=TGI readoutvalue="37.9 µM"
compound="ON1CCc2c([nH]c3ccccc23)C1c1ccc(Cl)cc1 (stereo not given)" subjectoftest="A498 renal" measure=TGI readoutvalue="> 100 µM"
compound=COc1cc2c(Oc3ccc(-c4cnc(Nc5ccc(F)cc5)n(C)c4=O)cc3F)ccnc2cc1OCCCN1CCOCC1 subjectoftest="A498 renal" measure=TGI readoutvalue="2.46 µM"
compound=COc1ccc(Cn2c(Br)c3c(c2-c2cc(OC)c(OC)c(OC)c2)CCc2sc(N)nc2-3)cc1 subjectoftest="A498 renal" measure=TGI readoutvalue="2.36 µM"
compound="CCOc1ccc(NC(=O)C(=O)C(/C(=N/N)C(=O)OC)c2nc3ccc([N+](=O)[O-])cc3[nH]c2=O)cc1 (stereo not given)" subjectoftest="A498 renal" measure=TGI readoutvalue="> 100 µM"
compound=O=C(CCN1CCOCC1)Nc1ccc(Cn2nnc3c2C(=O)c2nnn(Cc4ccc(NC(=O)CCN5CCOCC5)cc4)c2C3=O)cc1 subjectoftest="A498 renal" measure=TGI readoutvalue="> 100 µM"

###

Tested on: NCI-H460 lung
Outcome codes: active, inactive

molecule="N#CC1=C(N)Oc2c(ccc3ccccc23)C1c1cc2ccccc2n2nnnc12 (stereo not given)" subjectoftest="NCI-H460 lung" grouplabel=inactive
molecule=N#C[Se]CCN1C(=O)c2ccccc2C1=O subjectoftest="NCI-H460 lung" grouplabel=inactive
molecule=COc1cc(/C=C/c2cc(/C=C/c3ccc(O)c(OC)c3)n(C(=O)Nc3ccc(C)cc3)n2)ccc1O subjectoftest="NCI-H460 lung" grouplabel=active
molecule=Cc1cccc(Oc2ccc(Nc3ncnc4ccc(NC(=O)CN(C)C)cc34)cc2Cl)c1 subjectoftest="NCI-H460 lung" grouplabel=inactive
molecule=Oc1c(Br)cc(Cl)cc1C(c1cc(Cl)cc(Br)c1O)C(Cl)(Cl)Cl subjectoftest="NCI-H460 lung" grouplabel=inactive

###

# GI50 annotations
Test system: HOP-92 NSCLC
Test: NCI tumour cell line growth inhibition, 48 h
measure: GI50

compound=c1cc(OCCCCCOc2cccc(-c3nc4ccccc4[nH]3)c2)cc(-c2nc3ccccc3[nH]2)c1 readoutvalue="1090 nM"
compound=OC[C@H]1C[C@](O)(c2ccc(F)cc2)[C@@H](c2ccc(F)cc2)O1 readoutvalue="66000 nM"
compound=O=C(/C=C(\[O-])c1ccccc1)CCCCCCC(=O)/C=C(\[O-])c1ccccc1.O=C(/C=C(\[O-])c1ccccc1)CCCCCCC(=O)/C=C(\[O-])c1ccccc1.O=C(/C=C(\[O-])c1ccccc1)CCCCCCC(=O)/C=C(\[O-])c1ccccc1.[Y+3].[Y+3] readoutvalue="17000 nM"
compound=O=C(NO)c1ccc(CNc2cccc3nc(C4CC4)n(-c4ccccc4)c(=O)c23)cc1 readoutvalue="1990 nM"
compound="CC1=C(C(=O)Nc2ccc3[nH]ncc3c2)C(c2ccc(F)cc2)N=C(c2ccc(C(F)(F)F)nc2)N1 (stereo not drawn)" readoutvalue="548 nM"
compound=Oc1c(Br)cc(Cl)cc1C(c1cc(Cl)cc(Br)c1O)C(Cl)(Cl)Cl readoutvalue="457 nM"
compound="O=S(=O)(Nc1ccccc1)c1ccc(C2CC3(Cl)C(Cl)=C(Cl)C2(Cl)C3(Cl)Cl)cc1 (stereo not drawn)" readoutvalue="1840 nM"
compound=N#C[Se]CCN1C(=O)c2ccccc2C1=O readoutvalue="1370 nM"

###

Test system: SK-MEL-5 melanoma
Experiment: NCI tumour cell line growth inhibition, 48 h
TGI vs 30 µM: at or above is yes, below is no.

compound=CC[C@@H]1CC[C@@H]2[C@H](CC[C@]3(C)[C@@H](O[N+](=O)[O-])CC[C@@H]23)[C@H]1C(C)=O grouplabel=yes
compound=OC[C@H]1C[C@](O)(c2ccc(F)cc2)[C@@H](c2ccc(F)cc2)O1 grouplabel=yes
compound=Cc1nc2ccccc2n1Cc1nnc(-c2ccccc2)o1 grouplabel=yes
compound=O=C1c2ccccc2-c2c1c1c(O)cccc1n2Cc1ccccc1 grouplabel=no
compound=CN(CC(=O)Nc1ccccc1C(=O)O)c1ccccc1 grouplabel=yes
compound="O=C1c2ccccc2C2(O)N(c3ccccc3)C(=S)N(c3ccccc3)C12O (stereo not given)" grouplabel=yes
compound=COc1cc(S(=O)(=O)Nc2nc(-c3ccc(N=Cc4ccccc4O)cc3)cs2)ccc1Cl grouplabel=yes
compound="N#CCC(=O)N/N=C\\C(O)C(O)C(O)C(O)CO (stereo not given)" grouplabel=yes
compound="CC(=O)NC(CCCNC(=O)OCc1ccccc1)C(=O)NCc1ccccc1 (stereo not given)" grouplabel=yes
compound=c1cc(OCCCCCOc2cccc(-c3nc4ccccc4[nH]3)c2)cc(-c2nc3ccccc3[nH]2)c1 grouplabel=no
compound=CC[C@]12C=CCN3CC[C@@]4(c5ccc(OC)cc5N(C)[C@H]4[C@@](O)(C(=O)OC)[C@@H]1OC(=O)CCCN1CCN(CCCC(=O)O[C@@H]4[C@]5(CC)C=CCN6CC[C@@]7(c8ccc(OC)cc8N(C)[C@H]7[C@@]4(O)C(=O)OC)[C@@H]65)CC1)[C@@H]32 grouplabel=no
compound=O=C(c1c(F)c(F)c(F)c(F)c1F)n1c(=S)n(C(=O)c2c(F)c(F)c(F)c(F)c2F)c2ccccc21 grouplabel=yes
compound="Cc1nn(C(=O)Cc2ccccc2)c2c1C(c1ccc(/C=C/c3ccccc3)cc1)SC(N)=N2 (stereo not given)" grouplabel=yes
compound=CN(Cc1cccc2ccsc12)/N=C\c1ccc(Cl)cc1 grouplabel=yes
compound=COc1ccc(-c2c(Nc3ccccn3)nc3c(C4=CCCCC4)c(-c4ccccc4)[nH]n3c2=O)cc1 grouplabel=yes
compound="NC(CCC(=O)O)C(=O)NC(Cc1ccc(N(CCCl)CCCl)cc1)C(=O)O (stereo not given)" grouplabel=yes
compound="O=S(=O)(Nc1ccccc1)c1ccc(C2CC3(Cl)C(Cl)=C(Cl)C2(Cl)C3(Cl)Cl)cc1 (stereo not given)" grouplabel=no
compound=N#CC1(CCCCl)CCCCC1 grouplabel=yes
compound=COc1cc2c3c(n(CCCN)c(=O)c2cc1OC)-c1ccc(N)cc1C3=O grouplabel=no
compound="COC(=O)C1CC2CC1C1C2SC(F)(F)C1(F)F (stereo not given)" grouplabel=yes
compound=O=C(/C=C/c1ccccc1)CCN1CCCCC1 grouplabel=yes
compound=CC(=O)O[C@H]([C@H](OC(C)=O)[C@H](C)OC(C)=O)[C@@H](/C=C/[C@H]1CC=CC(=O)O1)OC(C)=O grouplabel=yes
compound=COc1cc(Nc2nc3cc(C)ccc3nc2-c2ccccc2)cc(OC)c1OC grouplabel=yes
compound=O=C(Nc1ccc(Cl)cc1Cl)C1C(=O)OC2(CCCCC2)OC1=O grouplabel=no
compound=N#Cc1c(CC(=O)O)cc(=O)n2c1[nH]c1ccccc12 grouplabel=yes
compound="COC1=CC(=O)C(O)=C(CC2(C)C(C)CCC3(C)C2CCCC3(C)C)C1=O (stereo not given)" grouplabel=no
compound=CC(C)(C)n1c(=O)n2c(-c3ccccc3)c(-c3ccccc3)n2c1=O grouplabel=yes
compound="C/C(=C\\c1ccccc1)C(O)C(=O)c1nc2ccc(Cl)cc2[nH]c1=O (stereo not given)" grouplabel=yes
compound=Cc1cc(C=O)c2c(=O)c3c(O)ccc(/C=C/C(C)C)c3oc2c1 grouplabel=yes
compound=O=c1[nH]c2ccccc2c2oc3ccccc3c12 grouplabel=yes
compound=COc1cc2c(Oc3ccc(-c4cnc(Nc5ccc(F)cc5)n(C)c4=O)cc3F)ccnc2cc1OCCCN1CCOCC1 grouplabel=no
compound=CN(C)c1ccc(/C=C2\CCc3ccccc3C2=O)cc1Br grouplabel=yes

Source of measurements: PubChem BioAssay (NCI)
